Reported melting point by item:

Known results for compounds:
compound	melting point
CCSc1ccc(-c2coc3ccc(-c4nnc(C)o4)nc23)cc1	174 to 175 °C
CCCc1nc2cc([N+](=O)[O-])ccc2n1Cc1ccc(C(=O)OCC)cc1	136 to 138 °C
Cc1oc(-c2ccccc2)nc1COc1ccc([N+](=O)[O-])cn1	142 to 143 °C
CN(C)C(=O)Nc1ccc2c(c1)C(=O)NC(=O)C2(C)C	256 to 258 °C
COc1ccc(-c2cc(CO)c(=O)n(CCCc3ccc(F)cc3)n2)cc1F	130 to 133 °C
COC(=O)c1cccnc1NC(=O)C(C)CS (stereo not given)	50 to 52 °C

input: Entry CC(C)(C)COc1cccc(C[C@@H](NC(=O)c2cccc3c2C=CCCC3)[C@@H](O)c2cccc(Cl)c2)c1 (racemic) : reported melting point = ?
output: 128 to 129 °C

input: Entry CC(=O)NCC1CN(c2ccc(N3CCN(C(=O)CCN4CCOCC4)CC3)c(F)c2)C(=O)O1 (stereo not given) : reported melting point = ?
output: 209 to 210 °C

input: Entry CN(C)c1ncc(O)c(-c2ccc(Cl)c(Cl)c2)n1 : reported melting point = ?
output: 188 to 189 °C

input: Entry CN1CCN(C(=O)CCS)C(C(=O)O)C1 (stereo not given) : reported melting point = ?
output: 75 to 79 °C

====

readout name: melting point

Known results for molecules:
molecule	melting point
CS(=O)(=O)NCCNCc1ccccc1	71 to 73 °C
COc1ccc(-c2cc3cc(C4=NNC(=O)CC4)ccc3[nH]2)cc1	262 to 264 °C
CCOC(=O)c1c[nH]c2ccc(Cc3ccccc3)cc12	119 to 121 °C
CNC(=O)c1oc(C(C)(C)C)cc1NC(=O)Nc1ccc(F)cc1	109 to 111 °C
C=C(CN(C)C)C(O)c1ncc2c(c1O)COC2c1ccc(OC)cc1 (stereo unspecified)	169 to 170 °C

Lab note: next molecule to report on.
input: Entry COC(CCCNC(=O)C1CCC(C(=O)NCCCC(OC)OC)CC1)OC (stereo unspecified) : reported melting point = ?
output: 191 to 195 °C

====

readout name: melting point (°C)

P = O=C(NCCc1ccccn1)c1ccccc1-c1ccccc1CNS(=O)(=O)c1ccc(F)cc1
Q = COc1ccc(N2CCN(c3ccc(NC(=O)Oc4ccccc4)cc3)CC2)cc1
input: When the recorded melting point values are compared, which is smaller: that of P or that of Q ? Reply briefly: the label of your chosen item.
output: P
(P: 130 °C, Q: 204 °C)

====

Reported melting point by item:

compound	readout name	test result
CCC(C(O)c1ccc(Cl)cc1)n1ncn(-c2ccc(N3CCN(c4ccc(O)cc4)CC3)cc2)c1=O (stereo unspecified)	melting point	270 °C
C=C1CCC(C(O)C(N)=O)CC1 (stereo unspecified)	melting point	127 to 129 °C
CCN1C(=O)CCCc2c1ccc(Nc1ncc(Cl)c(Nc3ccc(N4CCOCC4)cc3OC)n1)c2OC	melting point	210 to 212 °C
COC(=O)C(Sc1nnnn1-c1ccccc1)N1C(=O)c2ccccc2S1(=O)=O (stereo unspecified)	melting point	160 to 162 °C

input: Entry Clc1ccc(I)c(CBr)c1 : reported melting point = ?
output: 75 to 79 °C

input: Entry C[C@H](CSC(=O)c1ccccc1)C(=O)N1C(=O)N(C)C[C@H]1C(=O)OC(C)(C)C : reported melting point = ?
output: 128 °C

input: Entry O=C1CCCc2ccc(OCCCCN3CCN(c4cccc5c4OCC5)CC3)nc2N1 : reported melting point = ?
output: 176 to 177 °C
